Below is a list of entries, each paired with its recorded melting point value.

- compound: "CN(C)c1ccc(C#N)cn1"
  melting point: "64 to 66 °C"
- compound: "O=C(CCl)Nc1cc2ccccc2cc1C(=O)O"
  melting point: "223 to 225 °C"
- compound: "COC(=O)c1cn(C)c(-c2ccc(N)cc2)c1C(=O)OC"
  melting point: "181 to 183 °C"
- compound: "COc1cc2c(cc1/C=C/C(=O)O)OC(C)C2 (stereo not given)"
  melting point: "146 to 148 °C"
- compound: "Cc1ccc(-c2cnnc(N)n2)s1"
  melting point: "300 to 302 °C"
- compound: "O=Cc1nccc2ccccc12"
  melting point: "51 to 53 °C"
- compound: "O=C(c1ccc(O)cc1)c1ccc(F)cc1"
  melting point: "170 to 172 °C"
- compound: "O=Cc1c[nH]nc1-c1ccc2c(c1)OCCO2"
  melting point: "210 to 212 °C"
- compound: "Nc1cccc(C(=O)O)n1"
  melting point: "310 to 312 °C"
- compound: "O=C(O)c1cc([N+](=O)[O-])ccc1Oc1ccccc1"
  melting point: "167 to 169 °C"
- compound: "CCN(C(=O)N1CCC(C(=O)O)CC1)C(C)C"
  melting point: "107 to 109 °C"
- compound: "CCC(C)n1c(SCC(=O)O)nnc1-c1ccccc1 (stereo not given)"
  melting point: "155 to 157 °C"
- compound: "COc1cc(C(C[N+](=O)[O-])c2c[nH]c3ccccc23)ccc1O (stereo not given)"
  melting point: "115 to 117 °C"
- compound: "O=[N+]([O-])c1ccc(-c2ncon2)cc1"
  melting point: "166 to 168 °C"
- compound: "Nc1ccc(-c2c3c(=O)[nH][nH]c(=O)c3c3n2CCC3)cc1"
  melting point: "309 to 311 °C"
- compound: "NNC(=O)c1ccc(F)cc1Br"
  melting point: "151 to 153 °C"
- compound: "CN(CC(=O)O)C(=O)c1cc(Cl)nnc1Cl"
  melting point: "175 to 177 °C"
- compound: "O=C1CCCc2nc(-c3ccccc3F)sc21"
  melting point: "153 to 155 °C"
- compound: "CC(C)(C)NC(=O)CN1CCN(CC(N)=S)CC1"
  melting point: "148 to 152 °C"
- compound: "COc1cc(-c2noc(CCl)n2)ccc1OC(F)F"
  melting point: "46 to 50 °C"
- compound: "Cc1ccc2oc(C(=O)O)c(C)c2c1"
  melting point: "180 to 182 °C"
- compound: "Sc1nnnn1CCc1ccccn1"
  melting point: "193 to 195 °C"
- compound: "NC(=S)COc1ccccc1-c1ccccc1"
  melting point: "177 to 179 °C"
- compound: "COC(=O)c1cc(CBr)cc(C(=O)OC)c1"
  melting point: "139 to 141 °C"
- compound: "Cn1[nH]c(=O)c2c(=O)cc[nH]c21"
  melting point: "327 to 329 °C"
- compound: "COC(=O)c1cc([N+](=O)[O-])cc(C)c1C"
  melting point: "72 to 74 °C"
- compound: "CCOC(=O)c1cccnc1SCC(=O)O"
  melting point: "109 to 111 °C"
- compound: "NC1=C(c2nc3ccccc3[nH]2)C(=O)CN1NC(=O)c1cccs1"
  melting point: "270 to 272 °C"
- compound: "COCCNC(C)(C)CO"
  melting point: "44 to 46 °C"
- compound: "CC(Cl)C(=O)Nc1ccc(F)c([N+](=O)[O-])c1 (stereo not given)"
  melting point: "96 to 98 °C"
- compound: "CC(C)(Br)C(=O)Nc1ccccc1"
  melting point: "82 to 84 °C"
- compound: "N#CC1(NC(=O)c2ccccc2)CCCC1"
  melting point: "130 to 132 °C"
- compound: "Sc1nnc(-c2ccncc2)n1Cc1ccccc1"
  melting point: "195 to 197 °C"
- compound: "CC(C)(C)C(=O)Nc1ccccc1C(=O)O"
  melting point: "157 to 159 °C"
- compound: "Nc1ccc(S(N)(=O)=O)cc1Br"
  melting point: "153 to 155 °C"
- compound: "O=C(O)CNC(=O)C1CCC1"
  melting point: "107 to 109 °C"
- compound: "O=C1OC(C=Cc2ccccc2)=NC1=Cc1cccnc1"
  melting point: "165 to 167 °C"
- compound: "CNC(=O)c1c[nH]c2ccccc12"
  melting point: "203 to 205 °C"
- compound: "CNc1ncccn1"
  melting point: "60 to 62 °C"
- compound: "CC(C)(C)n1ccnc1SCC(=O)O"
  melting point: "174 to 176 °C"
- compound: "NC1(C(=O)O)CCCCC1"
  melting point: "300 to 302 °C"
- compound: "Nc1ccc(F)cc1-c1nc(CCOc2ccccc2)no1"
  melting point: "122 to 124 °C"
- compound: "Cn1cc(-c2cccc(CN)c2)cn1"
  melting point: "69 to 71 °C"
- compound: "COc1cc(N)c([N+](=O)[O-])cc1OC"
  melting point: "174 to 176 °C"
- compound: "COC(=O)c1cnn2ccccc12"
  melting point: "79 to 81 °C"
- compound: "CC(Cl)c1nc(-c2nnc[nH]2)no1 (stereo not given)"
  melting point: "187 to 189 °C"
- compound: "COC(=O)c1[nH]c(=O)[nH]c1C"
  melting point: "229 to 231 °C"
- compound: "CCOC(=O)C1=C(CC)Nc2ccccc2N=C1N"
  melting point: "152 to 154 °C"
- compound: "Cc1oc(C(=O)O)cc1Cn1cc(Br)cn1"
  melting point: "154 to 156 °C"
- compound: "O=c1ccnc(-c2cccc(O)c2)[nH]1"
  melting point: "229 to 231 °C"
- compound: "COC(=O)c1ccoc1CSc1ccccc1C(=O)O"
  melting point: "157 to 159 °C"
- compound: "O=C(O)c1n[nH]c(=O)c2ccccc12"
  melting point: "230 to 232 °C"
- compound: "OCc1cnn(Cc2ccccc2)c1"
  melting point: "55 to 57 °C"
- compound: "O=C(O)c1cc(-c2cccs2)n(-c2ccccc2)n1"
  melting point: "193 to 195 °C"
- compound: "Cn1nc(C(C)(C)C)c2cc(C(=O)O)cnc21"
  melting point: "243 to 245 °C"
